assay: activity coefficient (dimensionless); of the first substance listed, at infinite dilution; xn = mol fraction of the nth substance listed; settings: 343.15 K; 101 kPa; Liquid; dilutor technique; x1 = 0
value type: activity coefficient
# output: bare number, no unit

Please review the entries below; each comes with its answer.
[ask] Entry under review: CCO [ethanol] + CCOS(=O)(=O)[O-].CCn1cc[n+](C)c1 . Reported activity coefficient?
[reply] 0.554

[ask] CC(C)O [propan-2-ol] + CCn1cc[n+](C)c1.COS(=O)(=O)[O-] , same question.
[reply] 1.01

[ask] And what about the molecule CO [methanol] + CCn1cc[n+](C)c1.COS(=O)(=O)[O-] ?
[reply] 0.178

[ask] CO [methanol] + CCn1cc[n+](C)c1.O=S(=O)([O-])O , same question.
[reply] 0.058

[ask] Consider next the molecule CCCCO [butan-1-ol] + CCOS(=O)(=O)[O-].CCn1cc[n+](C)c1 in the same way.
[reply] 1.37

Next:
[ask] Dear colleague, I am looking for the recorded activity coefficient of the following molecule: CCC(C)O (stereo not drawn) [butan-2-ol] + CCn1cc[n+](C)c1.COS(=O)(=O)[O-]
[reply] 2.58

[ask] // next record CCCCO [butan-1-ol] + CCn1cc[n+](C)c1.COS(=O)(=O)[O-]
[reply] 2.05

[ask] Check CCCCO [butan-1-ol] + CCn1cc[n+](C)c1.O=S(=O)([O-])O too.
[reply] 0.43
